test system: NCI/ADR-RES ovarian; test: NCI tumour cell line growth inhibition, 48 h
Endpoint label: TGI

1. Cn1c(C(=O)c2ccncc2)cc2ccccc21: > 100 µM
2. Cc1[nH]nc(C(F)(F)F)c1N=NN(C)C: 23 µM
3. CCOC(=O)c1[nH]c(Br)c(-c2ccc(OC)c(OC)c2)c1Br: > 100 µM
4. COc1cc2ncn(-c3cc(OCc4ccccc4C(F)(F)F)c(C(=O)N(C)C)s3)c2cc1OC: > 25 µM
5. FC(F)(c1ccc2ncccc2c1)c1nnc2ccc(-c3ccncc3)nn12: > 100 µM

Okay, next one:
Sample O=c1c2cc(F)ccc2sc2c(N3CCNCC3)nc3ccc(F)cc3c12 ; TGI observed: 3.44 µM

* * *

system: SNB-75 CNS; experiment: NCI tumour cell line growth inhibition, 48 h
Label rule, in plain words: TGI of 30 µM and up is yes (1), under 30 µM is no (0).

Before answering, review these 4 worked examples.
1) O=C1CC2C(=O)c3ccccc3CC2c2ccccc21 (stereo not given): yes (1)
2) Clc1ccc(C(c2ccccc2Cl)C(Cl)Cl)cc1 (stereo not given): yes (1)
3) Cn1c2ccccc2c2c3c(c4c5ccccc5n(C)c4c21)C(=O)NC3=O: yes (1)
4) CCOC(=O)C1=C(Nc2ccc(Cl)cc2Cl)OCC1=O: yes (1)

-- ask Hi, just wondering whether Cc1ccc2c(c1)C(=O)c1nc(C)ccc1C2=O shows TGI of 30 µM or higher.
-- reply yes (1)

-- ask Exam item: decide whether the reported TGI for Cc1ncc(C(=O)Nc2ccc(CN3CCN(C)CC3)c(C(F)(F)F)c2)cc1C#Cc1cnc2cccnn12 is at least 30 µM.
-- reply no (0)

-- ask Please indicate if the recorded TGI for CCOC(=O)C1=C(O)C2C3CC4C2C(O)=C(C(=O)OCC)C2C1C3C42 (stereo not given) meets or exceeds 30 µM.
-- reply yes (1)

-- ask Does the reported TGI for COc1cc(OC)c(C(=O)/C=C/c2cc3c(cc2OCc2ccccc2)OC(C)(C)CC3)cc1CC=C(C)C fall at or above the 30 µM mark?
-- reply no (0)

-- ask Evaluate Cc1ccc(NC=O)c(-c2c(N)[nH]c(=S)[nH]c2=O)c1 : TGI at minimum 30 µM?
-- reply yes (1)

-- ask Test whether the compound CC(Oc1ccc2c(-c3ccccc3)cc(=O)oc2c1)C(=O)O (stereo not given) records TGI of 30 µM or higher.
-- reply yes (1)

-- ask I'd appreciate it if you could say whether c1ccc2c(c1)c1c(n2CCOCCN2CCCC2)CCCC1 has TGI at least equal to 30 µM.
-- reply yes (1)

-- ask Would you say O=S(=O)(O)c1cc(N=Nc2c(O)ccc3ccccc23)ccc1/C=C/c1ccc(N=Nc2c(O)ccc3ccccc23)cc1S(=O)(=O)O shows TGI at minimum 30 µM?
-- reply yes (1)

-- ask Is it the case that Nc1[nH]nc(Nc2ccc(Cl)cc2)c1P(=O)(c1ccccc1)c1ccccc1 has TGI reaching or exceeding 30 µM?
-- reply yes (1)

-- ask Determine whether this compound has TGI no lower than 30 µM: COc1ccc(S(=O)(=O)N2CCN(C(=O)c3ccc(-c4ccccc4)cc3)CC2C(=O)NO)cc1 (stereo not given)
-- reply no (0)

* * *

tested on: CCRF-CEM leukemia; test: NCI tumour cell line growth inhibition, 48 h
Endpoint label: log10 TGI (log10 of the value in µM)
Values are log10 of TGI in µM.

1. Cc1c2c3ccccc3nc-2n(C)c2ccccc12: 0.73
2. N/N=C1\C(=O)N(C2CCCCCC2)C(=O)C1C(=O)NC1CCCCCC1 (stereo unspecified): 1.91
3. CCC[CH2][Sn]([Cl])([Cl])[CH2]CCC: -0.11
4. C=C1C(=O)OC2C/C(C)=C/CC/C(C)=C/CCC3(COC(C)=O)OC3CC12 (stereo unspecified): 0.93

O=C1/C(=C/c2cccc(Br)c2)COc2ccc(O)cc21 yielded log10 TGI of 0.27
